protocol-summary: in vivo
setup-conditions: CD1 nude, mouse, 0.5 nmol/mouse, total radioactivity, Brain uptake
Listing: tissue uptake at 4 h of selected compounds
API: value field is a number in %ID/g; no unit string.

Past entries and their recorded results:
Cc1ccc(CCCC(=O)NCCOCCOCCOCCOCCC(=O)NC[C@H](NC(=O)CN2CCN(CC(=O)O)CCN(CC(=O)O)CCN(CC(=O)O)CC2)C(=O)N[C@@H](CC(=O)O)C(=O)N[C@@H](CC2CCCCC2)C(=O)N[C@@H](Cc2ccccc2)C(=O)N[C@H](CO)C(=O)N[C@H](CCCNC(=N)N)C(=O)N[C@@H](Cc2ccc(O)cc2)C(=O)N[C@@H](CC(C)C)C(=O)N[C@@H](Cc2c[nH]c3ccccc23)C(=O)N[C@@H](CO)C(N)=O)cc1 [[^177Lu]Lu-uPAR-14, metal not drawn]
0.1
Cc1ccc(CCCC(=O)NCCCCCCCC(=O)NCCCC[C@H](NC(=O)CN2CCN(CC(=O)O)CCN(CC(=O)O)CCN(CC(=O)O)CC2)C(=O)N[C@@H](CC(=O)O)C(=O)N[C@@H](CC2CCCCC2)C(=O)N[C@@H](Cc2ccccc2)C(=O)N[C@H](CO)C(=O)N[C@H](CCCNC(=N)N)C(=O)N[C@@H](Cc2ccc(O)cc2)C(=O)N[C@@H](CC(C)C)C(=O)N[C@@H](Cc2c[nH]c3ccccc23)C(=O)N[C@@H](CO)C(N)=O)cc1 [[^177Lu]Lu-uPAR-12, metal not drawn]
0.24
Cc1ccc(CCCC(=O)NCCOCCOCCOCCOCCC(=O)NCCCC[C@H](NC(=O)CC[C@H](C(=O)O)N2CCN(CC(=O)O)CCN(CC(=O)O)CCN(CC(=O)O)CC2)C(=O)N[C@@H](CC(=O)O)C(=O)N[C@@H](CC2CCCCC2)C(=O)N[C@@H](Cc2ccccc2)C(=O)N[C@H](CO)C(=O)N[C@H](CCCNC(=N)N)C(=O)N[C@@H](Cc2ccc(O)cc2)C(=O)N[C@@H](CC(C)C)C(=O)N[C@@H](Cc2c[nH]c3ccccc23)C(=O)N[C@@H](CO)C(N)=O)cc1 [[^177Lu]Lu-uPAR-17, metal not drawn]
0.13
Cc1ccc(CCCC(=O)NCCOCCOCCOCCOCCC(=O)NCCCC[C@H](NC(=O)CN2CCN(CC(=O)O)CCN(CC(=O)O)CCN(CC(=O)O)CC2)C(=O)N[C@@H](CC(=O)O)C(=O)N[C@@H](CC2CCCCC2)C(=O)N[C@@H](Cc2ccccc2)C(=O)N[C@H](CO)C(=O)N[C@H](CCCNC(=N)N)C(=O)N[C@@H](Cc2ccc(O)cc2)C(=O)N[C@@H](CC(C)C)C(=O)N[C@@H](Cc2c[nH]c3ccccc23)C(=O)N[C@@H](CO)C(N)=O)cc1 [[^177Lu]Lu-uPAR-11, metal not drawn]
0.12

Now, please, on to the next compound.
Please report the recorded tissue uptake at 4 h for Cc1ccc(CCCC(=O)NCCOCCOCCOCCC(=O)NCCCC[C@H](NC(=O)CN2CCN(CC(=O)O)CCN(CC(=O)O)CCN(CC(=O)O)CC2)C(=O)N[C@@H](CC(=O)O)C(=O)N[C@@H](CC2CCCCC2)C(=O)N[C@@H](Cc2ccccc2)C(=O)N[C@H](CO)C(=O)N[C@H](CCCNC(=N)N)C(=O)N[C@@H](Cc2ccc(O)cc2)C(=O)N[C@@H](CC(C)C)C(=O)N[C@@H](Cc2c[nH]c3ccccc23)C(=O)N[C@@H](CO)C(N)=O)cc1 [[^177Lu]Lu-uPAR-15, metal not drawn] .
0.1
